- assay.system: CXCR4 (Homo sapiens, UniProt P61073)
- Construct: endogenous in cells; probably MDA-MB-231
- Sequence (P61073 whole entry): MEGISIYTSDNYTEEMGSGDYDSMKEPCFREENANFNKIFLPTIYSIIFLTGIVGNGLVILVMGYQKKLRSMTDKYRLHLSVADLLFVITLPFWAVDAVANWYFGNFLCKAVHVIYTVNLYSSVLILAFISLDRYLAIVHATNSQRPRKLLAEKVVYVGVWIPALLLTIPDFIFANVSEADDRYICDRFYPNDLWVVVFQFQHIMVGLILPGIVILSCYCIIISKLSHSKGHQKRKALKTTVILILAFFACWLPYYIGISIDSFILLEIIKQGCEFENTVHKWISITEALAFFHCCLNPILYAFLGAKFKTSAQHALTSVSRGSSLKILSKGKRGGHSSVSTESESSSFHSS
- method.summary: Competition assay using biotin-labeled TN14003 and streptavidin-conjugated rhodamine on tumor cells
- condition.context: cells pre-incubated with various concentrations; read-out: IC50, detection of CXCR4 by biotin-labeled TN14003 on pre-incubated cells
- Protocol: In a separate embodiment, a process for screening potential drug candidates is provided. […] The peptide-based antagonist is typically a molecule with high affinity for the receptor. […] In this embodiment, the test compound is incubated with the receptor at varying concentrations and the signal elicited after binding of the labeled antagonist is measured and compared to control, as well as to each other. […]
experimental.endpoint: IC50

## Task Report IC50 on CXCR4 (Homo sapiens, UniProt P61073) for this entry: c1ccc(NCc2ccc(CNc3ccccn3)cc2)nc1 [WZZL811S]
## Result < 1 nM
